test system: Oryza sativa, (L.) Tebonnet; assay: Rice tolerance to post-transplant applications under flooded paddy conditions (Example 187), ORYSAT (Rice, Tebonnet); conditions: 0.1250 kg/ha, herbicidal effect rating 0-9, three to four weeks after treatment
Parameter: ORYSAT. Scope: all listed entries.

COMPOUND: Cn1c(C(F)(F)F)cc(=O)n(-c2ccc3snc(COC4CCCCO4)c3c2)c1=O (stereo not shown)
ORYSAT: 8.0
//
COMPOUND: CCOC(=O)c1nsc2cc(F)c(-n3c(=O)cc(C(F)(F)F)n(C)c3=O)cc12
ORYSAT: 7.0
//
COMPOUND: CC(c1ccccc1)S(=O)(=O)NC(=O)c1nsc2ccc(-n3c(=O)cc(C(F)(F)F)n(C)c3=O)cc12 (stereo not shown)
ORYSAT: 1.0
//
COMPOUND: Cn1c(C(F)(F)F)cc(=O)n(-c2ccc3snc(C(Br)S(=O)(=O)c4ccccc4)c3c2)c1=O (stereo not shown)
ORYSAT: 3.0

Origin of measurements: patent EP0908457B1
